target: T1, recombinant human VEGF-R2-Fc (human, UniProt P35968 20-764); assay: competition ELISA: antibody added to coated hVEGF-R2-Fc, then biotinylated hVEGF165 (competitor)
T1 construct: Bought Fc fusion (R&D Systems cat#357-KD); also called hVEGFR2-Fc; VEGF-R2 (KDR/Flk-1); not shown: Fc part of the bought fusion protein
T1 sequence (P35968 20-764 limits assumed): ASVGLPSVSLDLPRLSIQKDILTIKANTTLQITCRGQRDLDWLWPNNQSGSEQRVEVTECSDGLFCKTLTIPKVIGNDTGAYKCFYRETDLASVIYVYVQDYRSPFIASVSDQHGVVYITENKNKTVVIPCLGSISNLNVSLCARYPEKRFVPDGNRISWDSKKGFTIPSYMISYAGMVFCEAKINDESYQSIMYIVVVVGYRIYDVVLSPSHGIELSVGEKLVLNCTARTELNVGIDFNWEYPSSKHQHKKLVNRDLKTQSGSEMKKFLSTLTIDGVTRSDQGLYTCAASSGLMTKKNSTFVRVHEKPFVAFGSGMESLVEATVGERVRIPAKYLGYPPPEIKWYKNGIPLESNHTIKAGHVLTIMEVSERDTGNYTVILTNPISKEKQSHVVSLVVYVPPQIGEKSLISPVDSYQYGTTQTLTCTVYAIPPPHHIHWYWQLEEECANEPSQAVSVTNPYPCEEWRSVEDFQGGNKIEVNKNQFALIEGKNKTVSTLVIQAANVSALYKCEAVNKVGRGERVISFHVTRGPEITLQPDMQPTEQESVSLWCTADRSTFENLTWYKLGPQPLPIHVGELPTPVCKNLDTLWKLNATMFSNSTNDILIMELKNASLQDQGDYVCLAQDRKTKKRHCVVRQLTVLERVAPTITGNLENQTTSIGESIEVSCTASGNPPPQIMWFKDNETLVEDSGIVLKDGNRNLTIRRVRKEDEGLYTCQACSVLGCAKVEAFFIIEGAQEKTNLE
MEASUREMENT_NAME: IC50 (nM)
Just the number please, in nM, no unit attached.

Identify measured IC50 corresponding to hBCU-6B1.4 (antibody, V domains shown, Humanized anti-human VEGFR II IgG from pHybE expression vectors) VH: EVQLVQSGAEVKKPGASVKVSCKASGYTFTNYGMYWVRQAPGQGLEFMGWINTETGQPTYADDFKGRFTFTLDTSTSTAYMELRSLRSDDTAVYYCARLGNNYGIWFAYWGQGTLVTVSS VL: DIQMTQSPSSLSASVGDRVTITCRASDDLYSTLAWYQQKPGKSPKLLIFDANRLAAGVPSRFSGSGSGTDYTLTISSLQPEDVATYFCQQYNKFPWTFGGGTKVEIK
0.335

Ref: patent US20170015742A1
